Numbers sourced from ChEMBL document CHEMBL5131456.

# Protocol Details: Stabilization of fluorescein-labelled amyloidogenic full length immunoglobulin light chain dimer T46L/F49Y mutant (unknown origin) assessed as concentration of stabilizer that affords 50% maximal proteinase K protection by protease coupled fluorescence polarization assay
# Parameters: species or system Homo sapiens
pEC50: −log10 of the molar value.
Reported Metric: pEC50

Reference set, count: 8
# Smiles Repr, pEC50
rows = [
    ("CCN(CC)c1ccc2c(C)c(CCNC(=O)NCc3ccccc3)c(=O)oc2c1", 6.42),
    ("CCN(CC)c1ccc2c(C)c(CCNC(=O)NCc3cncc4ccccc34)c(=O)oc2c1", 6.42),
    ("CCN(CC)c1ccc2c(C)c(CCNC(=O)NCCc3cccnc3)c(=O)oc2c1", 5.69),
    ("CCN(CC)c1ccc2c(C)c(CCNC(=O)CCc3ccccc3)c(=O)oc2c1", 6.29),
    ("CCN(CC)c1ccc2c(C)c(CC(=O)NCCN(C)C)c(=O)oc2c1", 5.58),
    ("CCN(CC)c1ccc2c(C)c(CCNC(=O)NCc3ccc4ccccc4c3)c(=O)oc2c1", 7.56),
    ("CCN(CC)c1ccc2c(C)c(CCC(=O)NCCc3cccnc3)c(=O)oc2c1", 5.68),
    ("CCN(CC)c1ccc2c(C)c(CCNC(=O)CCc3cccnc3)c(=O)oc2c1", 5.79),
]

A. CCN(CC)c1ccc2c(C)c(CC(=O)NCCc3ccccc3)c(=O)oc2c1
B. CCN(CC)c1ccc2c(C)c(CCNC(=O)NCc3cccc(-c4c[nH]cn4)c3)c(=O)oc2c1
stdin: Out of A and B , name the one with the higher pEC50. # respond with the chosen item's label
stdout: B

###

# Organism: Homo sapiens
# Protocol Details: Stabilization of unlabeled amyloidogenic full length immunoglobulin light chain dimer (unknown origin) assessed as fold proteinase K protection at 10 uM by size-exclusion chromatography
Reported Metric: fold change (FC)

Reference set, count: 3
# Smiles Repr, fold change (FC)
data = [
    ("CCN(CC)c1ccc2c(C)c(CCC(=O)NCCN(C)C)c(=O)oc2c1", 0.13),
    ("CCN(CC)c1ccc2c(C)c(CCNC(=O)CCc3ccccc3)c(=O)oc2c1", 0.17),
    ("CCN(CC)c1ccc2c(C)c(CCNC(=O)NCCc3cccnc3)c(=O)oc2c1", 0.5),
]

I. CCN(CC)c1ccc2c(C)c(CC(=O)NCCN(C)C)c(=O)oc2c1
II. CCN(CC)c1ccc2c(C)c(CCOC(=O)NCc3cccc(-c4c[nH]cn4)c3)c(=O)oc2c1
stdin: Out of I and II , name the one with the higher fold change (FC). # respond with the chosen item's label
stdout: II
(II: 0.91, I: 0.39)

A. CCN(CC)c1ccc2c(C)c(CCNC(=O)CCc3cccnc3)c(=O)oc2c1
B. CCN(CC)c1ccc2c(C)c(CC(=O)NCCc3ccccc3)c(=O)oc2c1
stdin: Between A and B , which one shows the smaller fold change (FC) number? # respond with the chosen item's label
stdout: B

###

# Protocol Details: Stabilization of fluorescein-labelled amyloidogenic full length immunoglobulin light chain dimer (unknown origin) assessed as concentration of stabilizer that affords 50% maximal proteinase K protection by protease coupled fluorescence polarization assay
# Set-up: species or system Homo sapiens
Reported Metric: EC50 (nM)

Reference set, count: 5
# Smiles Repr, EC50 (nM)
rows = [
    ("CCN(CC)c1ccc2c(C)c(CCC(=O)NCCN(C)C)c(=O)oc2c1", 6800),
    ("CCN(CC)c1ccc2c(C)c(CC(=O)NCCN(C)C)c(=O)oc2c1", 1750),
    ("CCN(CC)c1ccc2c(C)c(CCC(=O)NCCc3cccnc3)c(=O)oc2c1", 634),
    ("CCN(CC)c1ccc2c(C)c(CCNC(=O)NCc3cccc(-c4c[nH]cn4)c3)c(=O)oc2c1", 140),
    ("CCN(CC)c1ccc2c(C)c(CCNC(=O)NCc3cccnc3)c(=O)oc2c1", 462),
]

A. CCN(CC)c1ccc2c(C)c(CC(=O)NCCc3ccccc3)c(=O)oc2c1
B. CCN(CC)c1ccc2c(C)c(CCNC(=O)CCc3cccnc3)c(=O)oc2c1
stdin: Out of A and B , name the one with the higher EC50. # respond with the chosen item's label
stdout: A
(A: 1830 nM, B: 1180 nM)

###

# Species: Homo sapiens
# Protocol Details: Stabilization of unlabeled amyloidogenic full length immunoglobulin light chain dimer (unknown origin) assessed as fold proteinase K protection at 10 uM by size-exclusion chromatography
Reported Metric: fold change (FC)

# Smiles Repr, fold change (FC)
rows = [
    ("CCN(CC)c1ccc2c(C)c(CCNC(=O)NCc3cccnc3)c(=O)oc2c1", 0.66),
    ("CCN(CC)c1ccc2c(C)cc(=O)oc2c1", 0.28),
    ("CCN(CC)c1ccc2c(C)c(CCNC(=O)NCc3ccc4ccccc4c3)c(=O)oc2c1", 0.66),
    ("CCN(CC)c1ccc2c(C)c(CCNC(=O)NCc3cccc(-c4c[nH]cn4)c3)c(=O)oc2c1", 0.81),
]

###

# Organism: Homo sapiens
# Protocol Details: Stabilization of unlabeled amyloidogenic full length immunoglobulin light chain dimer (unknown origin) assessed as fold proteinase K protection at 10 uM by size-exclusion chromatography
Reported Metric: fold change (FC)

# Smiles Repr, fold change (FC)
measured = [
    ("CCN(CC)c1ccc2c(C)c(CCC(=O)NCCc3cccnc3)c(=O)oc2c1", 0.61),
    ("CCN(CC)c1ccc2c(C)c(CCNC(=O)NCc3ccccc3)c(=O)oc2c1", 0.69),
    ("CCN(CC)c1ccc2c(C)c(CCNC(=O)NCc3cncc4ccccc34)c(=O)oc2c1", 0.74),
]

###

# Protocol Details: Stabilization of fluorescein-labelled amyloidogenic full length immunoglobulin light chain dimer (unknown origin) assessed as concentration of stabilizer that affords 50% maximal proteinase K protection by protease coupled fluorescence polarization assay
# Design: species or system Homo sapiens
pEC50: −log10 of the molar value.
Reported Metric: pEC50

# Smiles Repr, pEC50
measured = [
    ("CCN(CC)c1ccc2c(C)c(CCNC(=O)NCc3ccccc3)c(=O)oc2c1", 6.46),
]

P. CCN(CC)c1ccc2c(C)c(CCNC(=O)NCc3ccc4ccccc4c3)c(=O)oc2c1
Q. CCN(CC)c1ccc2c(C)c(CCNC(=O)CCc3ccccc3)c(=O)oc2c1
R. CCN(CC)c1ccc2c(C)c(CCNC(=O)NCCc3cccnc3)c(=O)oc2c1
S. CCN(CC)c1ccc2c(C)c(CCNC(=O)NCc3cncc4ccccc34)c(=O)oc2c1
stdin: Task field, ranking: reported pEC50, descending order. Write out the labels following the order that was asked for.
stdout: P, S, Q, R
(P: 6.95, S: 6.63, Q: 6.31, R: 5.98)
